Test system: MAGE-A3 TCR
Details: read-out: ELISA | EC50 | uM
Kindly state EC50 for each of the entries shown.
Give bare numbers, in µM.

Example substances with recorded EC50:
substance	number
GGSACSRIYDFAFCHTGGGGS[PEG4]Lys(biotin)- NH2	0.33
GGRRCVDVYDNAFCLIGGGGS[PEG4]Lys(biotin)- NH2	0.25
GGVSCKDVYDEAFCWTGGGGS[PEG4]Lys(biotin)- NH2	0.01
LVWGCIWDDMCSGGGGS[PEG4]Lys(biotin)-NH2	0.1
GGRICEEVYDWIFCESGGGGS[PEG4]Lys(biotin)- NH2	0.31
GGHCFVSPASGEWWCVGGGGS[PEG4]Lys(biotin)- NH2	0.08
GGTFCYFDHGLVNCQWGGGGS[PEG4]Lys(biotin)- NH2	0.5
GGTSCAQIYDFEFCYSGGGGS[PEG4]Lys(biotin)- NH2	0.17

Next up:
Prompt: Which EC50 value is on record for GGNSCSLVYDKAFCLFGGGGS[PEG4]Lys(biotin)- NH2 ?
Response: 0.43

All figures here come from patent US12606816B2.
